- experimental_protocol: activity coefficient (dimensionless); of the first substance listed, at infinite dilution; xn = mol fraction of the nth substance listed
- experimental_setup: 363.2 K; 101 kPa; Liquid; Chromatography; x1 = 0
parameter_measured: activity coefficient
Could you keep your reply to the number by itself?

Use these answered entries as a reference point.
# get_value(readout='activity coefficient', item= CCCCCC [hexane] + OCCOCCO ) 82.4

Now give it for CCc1ccccc1 [ethylbenzene] + OCCOCCO too. 15.2

Others:
# get_value(readout='activity coefficient', item= C#CCCCCC [1-heptyne] + OCCOCCO ) 19.3

Now give it for C=CCCCCC [1-heptene] + OCCOCCOCCO too. 27.5

---

The entries below come with measured activity coefficient values attached.
- experimental_protocol: activity coefficient (dimensionless); of the first substance listed, at infinite dilution; xn = mol fraction of the nth substance listed
- experimental_setup: 333.2 K; 101 kPa; Liquid; Chromatography; x1 = 0
Could you keep your reply to the number by itself?

# get_value(readout='activity coefficient', item= C1CCCCC1 [cyclohexane] + OCCOCCOCCO ) 21.1

Others:
# get_value(readout='activity coefficient', item= c1ccccc1 [benzene] + OCCOCCOCCO ) 3.91

Now give it for CCCCCCCC [octane] + OCCOCCO too. 188

Now give it for CCCO [propan-1-ol] + OCCOCCO too. 1.8

Now give it for CCCCC [pentane] + OCCOCCOCCO too. 33.7

Now give it for CO [methanol] + OCCOCCO too. 0.988

---

The entries below come with measured activity coefficient values attached.
- experimental_protocol: activity coefficient (dimensionless); of the first substance listed, at infinite dilution; xn = mol fraction of the nth substance listed
- experimental_setup: 363.2 K; 101 kPa; Liquid; Chromatography; x1 = 0
Could you keep your reply to the number by itself?

Use these answered entries as a reference point.
# get_value(readout='activity coefficient', item= C1CCCCC1 [cyclohexane] + OCCOCCOCCO ) 16.8

Now give it for C=CCCC [1-pentene] + OCCOCCOCCO too. 14.8

Now give it for C=CCCCCCC [oct-1-ene] + OCCOCCOCCO too. 36.8

Others:
# get_value(readout='activity coefficient', item= CCCCC [pentane] + OCCOCCOCCO ) 23.2

Now give it for CCCCCC [hexane] + OCCOCCOCCO too. 35.1

---

- experimental_protocol: activity coefficient (dimensionless); of the first substance listed, at infinite dilution; xn = mol fraction of the nth substance listed
- experimental_setup: 348.2 K; 101 kPa; Liquid; Chromatography; x1 = 0
Label rule, in plain words: activity coefficient of 30 and up is t, under 30 is f.

Threshold query (activity coefficient >= 30) on C=CCCCC [hex-1-ene] + OCCOCCOCCO f

Others:
Threshold query (activity coefficient >= 30) on C=CCCCCC [1-heptene] + OCCOCCO t

Now give it for Cc1ccccc1 [toluene] + OCCOCCOCCO too. f

Now give it for CCCCCCC [heptane] + OCCOCCOCCO too. t

Now give it for C#CCCCC [1-hexyne] + OCCOCCO too. f

Now give it for CO [methanol] + OCCOCCO too. f

Now give it for C1CCCCCCC1 [cyclooctane] + OCCOCCOCCO too. f

Now give it for C1CCCC1 [cyclopentane] + OCCOCCOCCO too. f

---

- experimental_protocol: activity coefficient (dimensionless); of the first substance listed, at infinite dilution; xn = mol fraction of the nth substance listed
- experimental_setup: 333.2 K; 101 kPa; Liquid; Chromatography; x1 = 0
Rule for this label: 1 (yes) means activity coefficient is less than 50; 0 (no) means activity coefficient is at least 50.

Say whether its activity coefficient is strictly beneath 50. Entry: CCCCC [pentane] + OCCOCCO 0 (no)

Now give it for C1CCCC1 [cyclopentane] + OCCOCCO too. 1 (yes)

Now give it for C1CCCCCC1 [cycloheptane] + OCCOCCO too. 0 (no)

Others:
Say whether its activity coefficient is strictly beneath 50. Entry: CCCO [propan-1-ol] + OCCOCCOCCO 1 (yes)

Now give it for CCCCCCCC [octane] + OCCOCCOCCO too. 0 (no)

Now give it for CCCCCCC [heptane] + OCCOCCO too. 0 (no)

Now give it for CCCCCC [hexane] + OCCOCCO too. 0 (no)

Now give it for CCO [ethanol] + OCCOCCO too. 1 (yes)

Now give it for C=CCCCCC [1-heptene] + OCCOCCOCCO too. 1 (yes)

Now give it for C#CCCC [1-pentyne] + OCCOCCO too. 1 (yes)

Now give it for CC(C)O [propan-2-ol] + OCCOCCO too. 1 (yes)

Now give it for C1CCCCC1 [cyclohexane] + OCCOCCO too. 1 (yes)

---

- experimental_protocol: activity coefficient (dimensionless); of the first substance listed, at infinite dilution; xn = mol fraction of the nth substance listed
- experimental_setup: 363.2 K; 101 kPa; Liquid; Chromatography; x1 = 0
parameter_measured: activity coefficient
Could you keep your reply to the number by itself?

Use these answered entries as a reference point.
# get_value(readout='activity coefficient', item= C#CCCCCC [1-heptyne] + OCCOCCOCCO ) 8.99

Now give it for Cc1ccccc1 [toluene] + OCCOCCO too. 10.5

Others:
# get_value(readout='activity coefficient', item= C=CCCCCCC [oct-1-ene] + OCCOCCO ) 82.6

Now give it for Cc1ccccc1 [toluene] + OCCOCCOCCO too. 5.55

Now give it for c1ccccc1 [benzene] + OCCOCCOCCO too. 3.36

Now give it for C=CCCCC [hex-1-ene] + OCCOCCOCCO too. 20.4

---

The entries below come with measured activity coefficient values attached.
- experimental_protocol: activity coefficient (dimensionless); of the first substance listed, at infinite dilution; xn = mol fraction of the nth substance listed
- experimental_setup: 348.2 K; 101 kPa; Liquid; Chromatography; x1 = 0
Could you keep your reply to the number by itself?

# get_value(readout='activity coefficient', item= CCO [ethanol] + OCCOCCOCCO ) 1.15

Now give it for C1CCCCCC1 [cycloheptane] + OCCOCCO too. 47.4

Now give it for Cc1ccccc1 [toluene] + OCCOCCO too. 10.9

Now give it for C=CCCCCCC [oct-1-ene] + OCCOCCOCCO too. 41.8

Now give it for C#CCCC [1-pentyne] + OCCOCCO too. 10.5

Now give it for C#CCCC [1-pentyne] + OCCOCCOCCO too. 5.11

Now give it for C1CCCCC1 [cyclohexane] + OCCOCCO too. 39.2

Now give it for C1CCCC1 [cyclopentane] + OCCOCCO too. 27.6

Attention now shifts to the item below.
# get_value(readout='activity coefficient', item= c1ccccc1 [benzene] + OCCOCCOCCO ) 3.86

---

- experimental_protocol: activity coefficient (dimensionless); of the first substance listed, at infinite dilution; xn = mol fraction of the nth substance listed
- experimental_setup: 348.2 K; 101 kPa; Liquid; Chromatography; x1 = 0
Rule for this label: 1 means activity coefficient is less than 9; 0 means activity coefficient is at least 9.

Worked examples follow.
Say whether its activity coefficient is strictly beneath 9. Entry: CCc1ccccc1 [ethylbenzene] + OCCOCCO 0

Now give it for CCCO [propan-1-ol] + OCCOCCOCCO too. 1

Now give it for c1ccccc1 [benzene] + OCCOCCO too. 1

Now give it for C1CCCCCCC1 [cyclooctane] + OCCOCCO too. 0

Now give it for CCCCCC [hexane] + OCCOCCO too. 0

Now give it for CCc1ccccc1 [ethylbenzene] + OCCOCCOCCO too. 1

Now give it for CC(C)O [propan-2-ol] + OCCOCCO too. 1

Now give it for C=CCCC [1-pentene] + OCCOCCO too. 0

Others:
Say whether its activity coefficient is strictly beneath 9. Entry: C=CCCCCC [1-heptene] + OCCOCCOCCO 0

Now give it for C#CCCCCCC [1-octyne] + OCCOCCOCCO too. 0

Now give it for CO [methanol] + OCCOCCOCCO too. 1

Now give it for CCCCC [pentane] + OCCOCCO too. 0

Now give it for C=CCCCC [hex-1-ene] + OCCOCCO too. 0

Now give it for CCCCCC [hexane] + OCCOCCOCCO too. 0

Now give it for C=CCCCCCC [oct-1-ene] + OCCOCCO too. 0

Now give it for C1CCCCC1 [cyclohexane] + OCCOCCOCCO too. 0

Now give it for CCCCCCCC [octane] + OCCOCCOCCO too. 0

---

- experimental_protocol: activity coefficient (dimensionless); of the first substance listed, at infinite dilution; xn = mol fraction of the nth substance listed
- experimental_setup: 363.2 K; 101 kPa; Liquid; Chromatography; x1 = 0
parameter_measured: activity coefficient

# get_value(readout='activity coefficient', item= CCCCCCC [heptane] + OCCOCCOCCO ) 43.7

Others:
# get_value(readout='activity coefficient', item= C1CCCCCC1 [cycloheptane] + OCCOCCO ) 42.1
